Just for reference, paper PMC3407795 is where these values come from.

Assay: Biodistribution in HEK293-hsst2A+ tumor-bearing mice
Format: in vivo
Conditions: mouse, lung, iv, 10 pmol total peptide, total radioactivity; HEK293-hsst2A+ tumor SCID mice, 4 h pi; mean ± SD; read-out: Lung uptake

>  <compound>
C[C@H](NC(=O)CN1CCN(CC(=O)O)CCN(CC(=O)O)CCN(CC(=O)O)CC1)C(=O)NCC(=O)N[C@H]1CSSC[C@@H](C(=O)O)NC(=O)[C@H](CO)NC(=O)[C@H]([C@@H](C)O)NC(=O)[C@H](Cc2ccccc2)NC(=O)[C@H]([C@@H](C)O)NC(=O)[C@H](CCCCN)NC(=O)[C@@H](Cc2c[nH]c3ccccc23)NC(=O)[C@H](Cc2ccccc2)NC(=O)[C@H](Cc2ccccc2)NC(=O)[C@H](CC(N)=O)NC(=O)[C@H](CCCCN)NC1=O [[^111In]AT2S, metal not drawn]

>  <tissue uptake at 4 h>
1.37 %ID/g

$$$$
